Molecular target: MAP2K3 (human)
Assay: KINOMEscan competition binding
Conditions: compound 10.0 µM
Mark label 1 only when kinase still bound, per cent of control stays strictly below 30%. Values equal to the cut-off are label 0.

Example results:
molecule: CN1C(=O)c2ccccc2N(C)c2nc(Nc3ccc(N4CCC(O)CC4)cc3)ncc21
subject-of-test: MAP2K3 (human)
class: label 0
//
molecule: N=C1NC(=O)/C(=C/c2ccc(-c3cccc4cc[nH]c34)o2)S1
subject-of-test: MAP2K3 (human)
class: label 1
//
molecule: O=C1NC(=O)C(=Cc2ccc(-c3ccc(Cl)cc3)o2)C(=O)N1
subject-of-test: MAP2K3 (human)
class: label 1
//
molecule: CS(=O)(=O)Nc1ccc(-c2cc(/C=C3\SC(=N)NC3=O)c[nH]c2=O)cc1
subject-of-test: MAP2K3 (human)
class: label 1

Next item in the queue.
Lab note: confirm whether the reported kinase still bound, per cent of control for this molecule is below 30%, equality not counting. molecule: CS(=O)C1=NC(=O)/C(=C/c2ccc(-c3ccc(S(N)(=O)=O)cc3)o2)S1 (stereo not given)
label 0

###

Endpoint: IC50. System: DCLK2 (human) (UniProt Q8N568). Items follow.
Sequence (Q8N568 whole entry, looked up): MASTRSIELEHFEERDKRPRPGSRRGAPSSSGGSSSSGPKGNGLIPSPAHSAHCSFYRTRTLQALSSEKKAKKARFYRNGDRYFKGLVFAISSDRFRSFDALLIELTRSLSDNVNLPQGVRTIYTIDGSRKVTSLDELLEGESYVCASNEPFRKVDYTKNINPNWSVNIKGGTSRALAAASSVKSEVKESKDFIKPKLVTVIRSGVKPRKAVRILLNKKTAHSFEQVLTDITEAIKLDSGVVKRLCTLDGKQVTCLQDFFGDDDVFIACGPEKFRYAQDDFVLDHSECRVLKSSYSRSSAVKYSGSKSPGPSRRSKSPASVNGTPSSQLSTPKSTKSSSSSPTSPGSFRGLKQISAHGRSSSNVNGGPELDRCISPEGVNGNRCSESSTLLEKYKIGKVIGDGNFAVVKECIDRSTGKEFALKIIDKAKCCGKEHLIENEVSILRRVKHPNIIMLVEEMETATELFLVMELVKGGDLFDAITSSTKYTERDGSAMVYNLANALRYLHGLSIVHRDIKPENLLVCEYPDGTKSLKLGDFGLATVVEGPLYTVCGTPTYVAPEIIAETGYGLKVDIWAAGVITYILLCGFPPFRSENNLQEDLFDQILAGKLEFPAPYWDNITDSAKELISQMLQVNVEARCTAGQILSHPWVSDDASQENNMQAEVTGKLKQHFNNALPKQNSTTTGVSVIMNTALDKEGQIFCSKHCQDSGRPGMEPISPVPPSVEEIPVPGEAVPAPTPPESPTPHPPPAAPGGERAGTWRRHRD
Please provide the amount together with its unit, number first.

chemical-string: CN1C(=O)CCN(C2CCCC2)c2nc(Nc3ccc(N4CCC(O)CC4)cn3)ncc21
recorded-measurement: 3.2 µM

What measured IC50 goes with CCOc1cc(N2CCC(O)CC2)ccc1Nc1ncc2c(n1)N(C1CCCC1)CCC(=O)N2CC ?
0.556 µM

###

Listed here: items and their measured kinase still bound, per cent of control.
Molecular target: STK38L (human) (UniProt Q9Y2H1)
Sequence (Q9Y2H1 whole entry, looked up): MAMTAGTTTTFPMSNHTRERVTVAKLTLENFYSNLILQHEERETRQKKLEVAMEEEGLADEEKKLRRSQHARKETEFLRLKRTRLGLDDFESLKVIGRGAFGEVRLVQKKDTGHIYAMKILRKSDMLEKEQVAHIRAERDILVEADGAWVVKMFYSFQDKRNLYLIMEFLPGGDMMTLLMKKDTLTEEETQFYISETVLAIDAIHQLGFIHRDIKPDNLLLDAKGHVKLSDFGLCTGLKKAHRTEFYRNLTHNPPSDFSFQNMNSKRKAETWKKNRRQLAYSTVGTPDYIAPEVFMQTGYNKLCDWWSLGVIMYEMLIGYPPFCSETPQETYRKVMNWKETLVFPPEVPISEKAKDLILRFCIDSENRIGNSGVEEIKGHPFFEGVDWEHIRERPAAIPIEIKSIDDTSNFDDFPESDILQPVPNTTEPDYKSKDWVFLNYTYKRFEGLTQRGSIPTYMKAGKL
Assay: KINOMEscan competition binding
Conditions: compound 10.0 µM
Give a bare numeral; the unit % is implied.

chemical-string: COc1cc(N2CCN(C)CC2)ccc1Nc1ncc2c(n1)N(C)c1ccccc1N(C)C2=O
kinase still bound, per cent of control, %: 100
//
chemical-string: O=C1NC(=O)/C(=C/c2c[nH]c(=O)c(-c3ccc(N4CCNCC4)nc3)c2)S1
kinase still bound, per cent of control, %: 92
//
chemical-string: CN1CCN(c2ccc(C(=O)Nc3ncc4c(n3)N(C)c3ccccc3C(=O)N4C)cc2)CC1
kinase still bound, per cent of control, %: 100
//
chemical-string: COc1cc(N2CCC(O)CC2)ccc1Nc1ncc2c(n1)N1CCc3cccc(c31)C(=O)N2C
kinase still bound, per cent of control, %: 94

--- query ---
What measured kinase still bound, per cent of control goes with NS(=O)(=O)c1ccc(-c2ccc(/C=C3\SC(=S)N(CC(=O)O)C3=O)o2)cc1 ?
19

###

Target: TLK2 (human) (UniProt Q86UE8)
Sequence (Q86UE8 whole entry, looked up): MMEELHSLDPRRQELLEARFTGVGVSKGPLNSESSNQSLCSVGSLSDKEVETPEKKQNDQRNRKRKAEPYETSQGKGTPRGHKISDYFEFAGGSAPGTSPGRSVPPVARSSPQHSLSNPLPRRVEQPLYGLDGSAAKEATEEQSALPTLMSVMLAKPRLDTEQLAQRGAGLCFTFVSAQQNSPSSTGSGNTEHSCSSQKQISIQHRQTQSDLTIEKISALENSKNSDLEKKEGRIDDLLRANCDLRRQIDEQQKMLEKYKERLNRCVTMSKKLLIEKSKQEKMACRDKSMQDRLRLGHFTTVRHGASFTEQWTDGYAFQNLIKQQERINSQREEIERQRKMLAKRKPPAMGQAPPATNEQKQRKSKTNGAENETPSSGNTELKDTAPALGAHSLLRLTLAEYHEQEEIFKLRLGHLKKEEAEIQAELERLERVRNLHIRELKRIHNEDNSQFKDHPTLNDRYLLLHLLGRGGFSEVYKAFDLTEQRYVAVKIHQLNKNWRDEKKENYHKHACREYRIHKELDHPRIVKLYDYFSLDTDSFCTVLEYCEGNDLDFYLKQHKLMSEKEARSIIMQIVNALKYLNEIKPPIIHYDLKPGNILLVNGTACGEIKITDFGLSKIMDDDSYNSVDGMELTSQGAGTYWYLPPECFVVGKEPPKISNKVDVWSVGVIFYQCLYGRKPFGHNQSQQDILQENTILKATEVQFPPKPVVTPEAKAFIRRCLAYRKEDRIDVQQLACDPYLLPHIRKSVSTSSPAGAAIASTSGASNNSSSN
Assay: KINOMEscan competition binding
Conditions: compound 10.0 µM
Listed here: items and their measured kinase still bound, per cent of control.
Give a bare numeral; the unit % is implied.

Some solved cases for reference:
chemical-string: COc1cc(N2CCN(C)CC2)ccc1Nc1ncc2c(n1)Nc1ccccc1NC2=O
assay-endpoint: kinase still bound, per cent of control
value-units: %
recorded-measurement: 100

chemical-string: CSC1=NC(=O)/C(=C/c2ccc(-c3ccc(S(N)(=O)=O)cc3)o2)S1
assay-endpoint: kinase still bound, per cent of control
value-units: %
recorded-measurement: 28

chemical-string: COc1cc(N2CCN(C)CC2)ccc1Nc1ncc2c(n1)N(C)c1sccc1C(=O)N2C
assay-endpoint: kinase still bound, per cent of control
value-units: %
recorded-measurement: 93

chemical-string: NS(=O)(=O)c1ccc(-c2ccc(/C=C3\SC(=S)N(CC(=O)O)C3=O)o2)cc1
assay-endpoint: kinase still bound, per cent of control
value-units: %
recorded-measurement: 25

chemical-string: CN1C(=O)c2ccccc2N(C)c2nc(Nc3ccc(N4CCC(O)CC4)cc3)ncc21
assay-endpoint: kinase still bound, per cent of control
value-units: %
recorded-measurement: 100

What measured kinase still bound, per cent of control goes with COc1cc(N2CCN(C)CC2)ccc1Nc1ncc2c(n1)N(C)c1ccccc1N(C)C2=O ?
96

What measured kinase still bound, per cent of control goes with CN1C(=O)c2ccccc2N(C)c2nc(NS(=O)(=O)c3ccc(N)cc3)ncc21 ?
100

What measured kinase still bound, per cent of control goes with CN1CCN(c2ccc(C(=O)Nc3ncc4c(n3)N(C)c3ccccc3C(=O)N4C)cc2)CC1 ?
100

What measured kinase still bound, per cent of control goes with COc1cc(N2CCC(O)CC2)ccc1Nc1ncc2c(n1)N1CCc3cccc(c31)C(=O)N2C ?
94

What measured kinase still bound, per cent of control goes with O=C1NC(=S)S/C1=C\c1ccc(-c2cncc3ccccc23)o1 ?
26

###

Target: DAPK1 (human) (UniProt P53355)
Sequence (P53355 whole entry, looked up): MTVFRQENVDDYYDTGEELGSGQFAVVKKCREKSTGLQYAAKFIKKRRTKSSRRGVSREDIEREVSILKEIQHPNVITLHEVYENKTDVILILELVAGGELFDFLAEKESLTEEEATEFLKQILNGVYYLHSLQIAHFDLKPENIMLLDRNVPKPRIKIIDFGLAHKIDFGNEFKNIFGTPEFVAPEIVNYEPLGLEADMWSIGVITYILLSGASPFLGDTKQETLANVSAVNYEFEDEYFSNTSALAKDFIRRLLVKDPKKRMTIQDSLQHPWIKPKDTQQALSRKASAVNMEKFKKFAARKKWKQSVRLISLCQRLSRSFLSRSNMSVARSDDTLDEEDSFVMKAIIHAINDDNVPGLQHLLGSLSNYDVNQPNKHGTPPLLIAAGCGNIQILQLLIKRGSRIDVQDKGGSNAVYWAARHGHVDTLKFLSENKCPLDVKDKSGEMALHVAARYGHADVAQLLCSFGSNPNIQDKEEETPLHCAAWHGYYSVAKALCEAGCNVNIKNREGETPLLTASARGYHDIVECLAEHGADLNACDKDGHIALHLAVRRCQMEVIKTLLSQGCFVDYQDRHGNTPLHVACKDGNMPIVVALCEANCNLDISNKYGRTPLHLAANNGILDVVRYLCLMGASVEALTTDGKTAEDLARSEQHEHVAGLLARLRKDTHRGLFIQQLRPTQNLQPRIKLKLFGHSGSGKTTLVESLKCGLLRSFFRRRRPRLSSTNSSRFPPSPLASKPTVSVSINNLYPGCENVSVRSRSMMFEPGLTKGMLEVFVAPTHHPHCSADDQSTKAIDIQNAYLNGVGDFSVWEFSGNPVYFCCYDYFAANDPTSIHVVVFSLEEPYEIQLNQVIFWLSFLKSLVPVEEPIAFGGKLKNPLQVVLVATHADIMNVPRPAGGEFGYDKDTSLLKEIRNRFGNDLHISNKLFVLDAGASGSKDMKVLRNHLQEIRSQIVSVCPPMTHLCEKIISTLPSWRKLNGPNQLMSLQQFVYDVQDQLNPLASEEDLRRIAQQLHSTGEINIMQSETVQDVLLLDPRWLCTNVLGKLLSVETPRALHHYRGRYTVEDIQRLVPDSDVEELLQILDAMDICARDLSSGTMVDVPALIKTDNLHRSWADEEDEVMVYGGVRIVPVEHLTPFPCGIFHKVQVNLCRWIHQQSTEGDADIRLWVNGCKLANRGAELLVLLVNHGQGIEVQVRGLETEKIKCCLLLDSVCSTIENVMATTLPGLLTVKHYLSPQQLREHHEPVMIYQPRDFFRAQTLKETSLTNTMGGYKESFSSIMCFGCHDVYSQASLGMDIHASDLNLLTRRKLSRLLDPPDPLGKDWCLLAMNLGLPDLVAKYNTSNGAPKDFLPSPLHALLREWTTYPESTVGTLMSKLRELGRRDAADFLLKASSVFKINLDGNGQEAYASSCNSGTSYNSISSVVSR
Test: KINOMEscan competition binding
Conditions: compound 10.0 µM
assay-endpoint: kinase still bound, per cent of control (%)
Give a bare numeral; the unit % is implied.

molecule: N=C1NC(=O)/C(=C/c2ccc(-c3cnc4ccccc4c3)o2)S1
subject-of-test: DAPK1 (human) (UniProt P53355)
assay-endpoint: kinase still bound, per cent of control
value-units: %
recorded-measurement: 22
//
molecule: CCN1CCN(Cc2cc(NC(=O)c3cccc4cc(-c5ccc(/C=C6\SC(=O)NC6=O)o5)ccc34)cc(C(F)(F)F)c2)CC1
subject-of-test: DAPK1 (human) (UniProt P53355)
assay-endpoint: kinase still bound, per cent of control
value-units: %
recorded-measurement: 34
//
molecule: Cc1cn(-c2cc(NC(=O)c3cccc4cc(-c5ccc(/C=C6\SC(=N)NC6=O)o5)ccc34)cc(C(F)(F)F)c2)cn1
subject-of-test: DAPK1 (human) (UniProt P53355)
assay-endpoint: kinase still bound, per cent of control
value-units: %
recorded-measurement: 32
//
molecule: CS(=O)(=O)Nc1ccc(-c2ccc(/C=C3\SC(=N)NC3=O)o2)cc1
subject-of-test: DAPK1 (human) (UniProt P53355)
assay-endpoint: kinase still bound, per cent of control
value-units: %
recorded-measurement: 8.7
//
molecule: CS(=O)C1=NC(=O)/C(=C/c2ccc(-c3ccc(S(N)(=O)=O)cc3)o2)S1 (stereo unspecified)
subject-of-test: DAPK1 (human) (UniProt P53355)
assay-endpoint: kinase still bound, per cent of control
value-units: %
recorded-measurement: 2.3

What measured kinase still bound, per cent of control goes with COc1cc(N2CCC(O)CC2)ccc1Nc1ncc2c(n1)N1CCc3cccc(c31)C(=O)N2C ?
44

What measured kinase still bound, per cent of control goes with CN1C(=O)c2ccccc2N(C)c2nc(Nc3ccc(N4CCC(O)CC4)cc3)ncc21 ?
98

What measured kinase still bound, per cent of control goes with N=C1NC(=O)/C(=C/c2ccc(-c3cccc4cc[nH]c34)o2)S1 ?
4.4

What measured kinase still bound, per cent of control goes with N=C1NC(=O)/C(=C/c2ccc(-c3cncc4ccccc34)o2)S1 ?
5.9

What measured kinase still bound, per cent of control goes with N=C1NC(=O)/C(=C/c2ccc(-c3ccc(C(N)=O)cc3O)o2)S1 ?
9.7

What measured kinase still bound, per cent of control goes with N=C1NC(=O)/C(=C/c2ccc(-c3ccc(F)cc3)o2)S1 ?
15

What measured kinase still bound, per cent of control goes with CSC1=NC(=O)/C(=C/c2c[nH]c(=O)c(-c3ccc(NS(C)(=O)=O)cc3)c2)S1 ?
3.7

What measured kinase still bound, per cent of control goes with O=C1NC(=O)/C(=C/c2ccc(-c3ccc(C(=O)Nc4ccc(N5CCNCC5)cc4)cc3)o2)S1 ?
34

###

Target: CLK1 (human) (UniProt P49759)
Sequence (P49759 whole entry, looked up): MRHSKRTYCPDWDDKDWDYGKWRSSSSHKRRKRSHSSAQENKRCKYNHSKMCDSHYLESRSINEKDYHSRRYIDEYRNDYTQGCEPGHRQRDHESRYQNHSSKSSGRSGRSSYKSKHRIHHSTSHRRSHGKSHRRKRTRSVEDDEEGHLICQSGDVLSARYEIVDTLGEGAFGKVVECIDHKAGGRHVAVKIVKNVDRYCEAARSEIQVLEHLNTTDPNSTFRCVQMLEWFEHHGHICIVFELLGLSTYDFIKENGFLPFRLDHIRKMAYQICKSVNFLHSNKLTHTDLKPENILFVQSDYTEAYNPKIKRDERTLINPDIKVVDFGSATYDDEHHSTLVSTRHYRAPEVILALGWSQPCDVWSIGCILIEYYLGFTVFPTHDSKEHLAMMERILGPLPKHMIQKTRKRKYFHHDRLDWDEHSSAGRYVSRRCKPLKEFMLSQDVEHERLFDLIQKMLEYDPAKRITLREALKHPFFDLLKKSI
Assay: KINOMEscan competition binding
Settings: compound 10.0 µM
Mark Criterion met only when kinase still bound, per cent of control stays strictly below 20%. Values equal to the cut-off are Criterion not met.

compound: COc1cc(N2CCN(C)CC2)ccc1Nc1ncc2c(n1)N(C)c1ccccc1N(C)C2=O
class: Criterion not met
//
compound: N=C1NC(=O)/C(=C/c2c[nH]c(=O)c(-c3ccc(S(N)(=O)=O)cc3)c2)S1
class: Criterion met
//
compound: COc1cc(N2CCN(C)CC2)ccc1Nc1ncc2c(n1)Nc1ccccc1NC2=O
class: Criterion not met
//
compound: Nc1cccc(-c2cc(/C=C3\SC(=O)NC3=O)c[nH]c2=O)c1
class: Criterion met
//
compound: COc1cc(C(=O)NC2CCN(C)CC2)ccc1Nc1ncc2c(n1)N(C1CCCC1)C(C)CC(=O)N2C (stereo unspecified)
class: Criterion met

Lab note: confirm whether the reported kinase still bound, per cent of control for this compound is below 20%, equality not counting. compound: COc1cc(N2CCC(O)CC2)ccc1Nc1ncc2c(n1)N1CCc3cccc(c31)C(=O)N2C
Criterion not met

Lab note: confirm whether the reported kinase still bound, per cent of control for this compound is below 20%, equality not counting. compound: CN1CCN(c2ccc(C(=O)Nc3ncc4c(n3)N(C)c3ccccc3C(=O)N4C)cc2)CC1
Criterion not met

Lab note: confirm whether the reported kinase still bound, per cent of control for this compound is below 20%, equality not counting. compound: N=C1NC(=O)/C(=C/c2c[nH]c(=O)c(-c3ccc4cc[nH]c4c3)c2)S1
Criterion not met
